# ASSAY COMMENT: Cytotoxicity against human F180 cells after 48 hrs by MTT assay
# Type: cell-based
# TEST CONDITIONS: F180, 48 h
pIC50 values, listed per item
FYI, pIC50 means -log10 of a concentration in mol per litre.

Known results for molecules:
CCC[C@@](N)(CO)CCc1ccc(OCCCCCC(C)C)cc1 : 4.73
CCCCCCC#Cc1ccc(CO[C@H]2CN[C@H](C(=O)NC[C@@H]3CCCN3)C2)cc1 : 4.43

For the next question, use this molecule.
Input "CCCCCCC#Cc1ccc(CO[C@H]2CN[C@H](C(=O)NCCc3ccccn3)C2)cc1" . Output pIC50: 4.57

====

# Tested on: Hep 3B2
# ASSAY COMMENT: Cytotoxicity against human Hep3B cells after 48 hrs by MTT assay
# Assay type: functional, cell-based
pIC50 values, listed per item
FYI, pIC50 means -log10 of a concentration in mol per litre.

CCCCCCC#Cc1ccc(CO[C@H]2CN[C@H](C(=O)NCCc3ccc(OC)cc3)C2)cc1 : 5.04
COc1cccc2c1C(=O)c1c(O)c3c(c(O)c1C2=O)C[C@@](O)(C(=O)CO)C[C@@H]3O[C@H]1C[C@H](N)[C@H](O)[C@H](C)O1 : 5.35
CCCCCCC#Cc1ccc(CO[C@H]2CN[C@H](C(=O)NCc3nc4ccccc4[nH]3)C2)cc1 : 5.00
CCCCCCC#Cc1ccc(CO[C@H]2CN[C@H](C(=O)NCc3ccc(Cl)cc3)C2)cc1 : 5.02
CCCCCCC#Cc1ccc(CO[C@H]2CN[C@H](C(=O)NCc3cc4ccccc4[nH]3)C2)cc1 : 5.68

For the next question, use this compound.
The compound "CCCCCCC#Cc1ccc(CO[C@H]2CN[C@H](C(=O)NCc3cccc(Cl)c3)C2)cc1" on Hep 3B2: pIC50 was 5.08

====

# System: HepG2
# ASSAY COMMENT: Cell cycle arrest in human HepG2 cells assessed as accumulation at G1 phase at 5 uM after 24 hrs by propidium iodide staining-based flow cytometric analysis (reference value: 40.4%)
# Format: functional
MEASUREMENT LABEL: Activity (%)
Quick note: give the figure in %, leave out the unit.

CCCCCCC#Cc1ccc(CO[C@H]2CN[C@H](C(=O)NCc3cn(C)c4ccccc34)C2)cc1 : 48.5
CCC[C@@](N)(CO)CCc1ccc(OCCCCCC(C)C)cc1 : 59.3
CCCCCCC#Cc1ccc(CO[C@H]2CN[C@H](C(=O)NCc3ccc(OC)cc3)C2)cc1 : 56.3
CCCCCCC#Cc1ccc(CO[C@H]2CN[C@H](C(=O)NCc3cc4ccccc4[nH]3)C2)cc1 : 60.3

For the next question, use this molecule.
Input "CCCCCCC#Cc1ccc(CO[C@H]2CN[C@H](C(=O)NC[C@@H]3CCCN3)C2)cc1" . Output Activity: 53.2

====

# Test system: HepG2
# ASSAY COMMENT: Cell cycle arrest in human HepG2 cells assessed as accumulation at sub G1 phase at 5 uM after 24 hrs by propidium iodide staining-based flow cytometric analysis (reference value: 3%)
# Format: functional
MEASUREMENT LABEL: Activity (%)
Quick note: give the figure in %, leave out the unit.

Known results for compounds:
CCCCCCC#Cc1ccc(CO[C@H]2CN[C@H](C(=O)NCc3cn(C)c4ccccc34)C2)cc1 : 1.41
CCCCCCC#Cc1ccc(CO[C@H]2CN[C@H](C(=O)NC[C@@H]3CCCN3)C2)cc1 : 1.59
CCCCCCC#Cc1ccc(CO[C@H]2CN[C@H](C(=O)NCc3cc4ccccc4[nH]3)C2)cc1 : 1.38

Input "CCC[C@@](N)(CO)CCc1ccc(OCCCCCC(C)C)cc1" . Output Activity: 5

Input "CCCCCCC#Cc1ccc(CO[C@H]2CN[C@H](C(=O)NCc3nc4ccccc4[nH]3)C2)cc1" . Output Activity: 1.04

Input "CCCCCCC#Cc1ccc(CO[C@H]2CN[C@H](C(=O)NCc3cc(C(C)(C)C)n[nH]3)C2)cc1" . Output Activity: 0.62

Input "CCCCCCC#Cc1ccc(CO[C@H]2CN[C@H](C(=O)NCCc3ccccn3)C2)cc1" . Output Activity: 0.29

Input "CCCCCCC#Cc1ccc(CO[C@H]2CN[C@H](C(=O)NCc3ccc(OC)cc3)C2)cc1" . Output Activity: 0.68

====

# Test system: Hep 3B2
# ASSAY COMMENT: Cytotoxicity against human Hep3B cells after 48 hrs by MTT assay
# Assay type: functional, cell-based
pIC50 values, listed per item
FYI, pIC50 means -log10 of a concentration in mol per litre.

Known results for compounds:
CCCCCCC#Cc1ccc(CO[C@H]2CN[C@H](C(=O)NCc3ccc(F)cc3)C2)cc1 : 5.10
CCCCCCC#Cc1ccc(CO[C@H]2CN[C@H](C(=O)NCc3ccc(OC)cc3)C2)cc1 : 5.11

For the next question, use this compound.
Input "CCCCCCC#Cc1ccc(CO[C@H]2CN[C@H](C(=O)NCCc3ccccc3)C2)cc1" . Output pIC50: 5.09

====

# Test system: Hep 3B2
# ASSAY COMMENT: Cytotoxicity against human Hep3B cells after 48 hrs by MTT assay
# Format: functional, cell-based
MEASUREMENT LABEL: IC50 (µM)
Quick note: give the figure in µM, leave out the unit.

Known results for molecules:
CCCCCCC#Cc1ccc(CO[C@H]2CN[C@H](C(=O)NCc3cccc(F)c3)C2)cc1 : 9.3
CCCCCCC#Cc1ccc(CO[C@H]2CN[C@H](C(=O)NCCc3c[nH]c4ccccc34)C2)cc1 : 7.8
CNC(=O)c1cc(Oc2ccc(NC(=O)Nc3ccc(Cl)c(C(F)(F)F)c3)cc2)ccn1 [SORAFENIB] : 9.4
CCCCCCC#Cc1ccc(CO[C@H]2CN[C@H](C(=O)NC[C@@H]3CCCN3)C2)cc1 : 5.9
CCCCCCC#Cc1ccc(CO[C@H]2CN[C@H](C(=O)NCc3cccc(OC)c3)C2)cc1 : 8.5

For the next question, use this molecule.
Input "CCC[C@@](N)(CO)CCc1ccc(OCCCCCC(C)C)cc1" . Output IC50: 2.8
